- method-summary: protein stability index of a GFP-peptide fusion (yeast GPS) (PSI 1-4); higher = more stable; sorted into four equal gates, so the index is relative within each strain
- details: ubr1∆
readout-type: protein stability index
Numbers only.

Some sequences with known protein stability index results, for comparison:
[
  {
    "sequence-string": "ATFLLTDIKDTLTKISM [MCD1]",
    "protein stability index": 3.17
  },
  {
    "sequence-string": "YVESDEDDTQIVTGNLV [IRR1]",
    "protein stability index": 3.26
  },
  {
    "sequence-string": "SPAVKKLLQLAGVEDVY [RPS2]",
    "protein stability index": 2.05
  },
  {
    "sequence-string": "PNHIPSVNPSNKPIKRM [SWP82]",
    "protein stability index": 3.02
  },
  {
    "sequence-string": "DTKPFLNKDSTNEFVGS [NUT1]",
    "protein stability index": 3.04
  },
  {
    "sequence-string": "VVSAVGEARNDIENKEE [YAR002W/NUP60]",
    "protein stability index": 2.9
  },
  {
    "sequence-string": "KSAISNNFRESDIIILK [SIR4]",
    "protein stability index": 3.09
  },
  {
    "sequence-string": "ARRLKNRAARDRRAQRV [RPL19A]",
    "protein stability index": 3.17
  },
  {
    "sequence-string": "LSINEKDFVTMAIEIIN [YCG1]",
    "protein stability index": 2.15
  },
  {
    "sequence-string": "NHNKTKLLKSLKNTKYF [PRP8]",
    "protein stability index": 2.15
  }
]

# map each sequence to its protein stability index
1. KEENDEGLSAQIAFDLV [RPN2]
2. SDKPSLPSAVDGENDKK [YLR335W/NUP2]
3. YEYAEHDLLQIIHFHSH [SSN3]
4. LDSNNNNSNSNNNDNNN [SWI1]

1. 3.33
2. 3.35
3. 2.63
4. 2.71

###

- method-summary: protein stability index of a GFP-peptide fusion (yeast GPS) (PSI 1-4); higher = more stable; sorted into four equal gates, so the index is relative within each strain
- details: doa10∆
Tick 1 if protein stability index is 3 or greater. Tick -1 if protein stability index is less than 3.

[
  {
    "sequence-string": "DKHLYHVLYKESKGNAF [RPL19A]",
    "label-class": 1
  },
  {
    "sequence-string": "AAASLPSKKLKTEDGFV [RPC82]",
    "label-class": 1
  },
  {
    "sequence-string": "ELEQLSSEALEAARICA [RPL10]",
    "label-class": -1
  },
  {
    "sequence-string": "AADTSIVEQDKSMELFY [YJL039C/NUP192]",
    "label-class": -1
  }
]

Please find the next sequence below.
Evaluate STRLKKACKTADKLVNV [SRP68] : protein stability index at minimum 3?
1

###

- method-summary: protein stability index of a GFP-peptide fusion (yeast GPS) (PSI 1-4); higher = more stable; sorted into four equal gates, so the index is relative within each strain
- details: pdr5∆
Kindly supply the reported protein stability index values for the records listed here.
One number for each entry.

[
  {
    "sequence-string": "IKKKRKELFEKTFDYVS [SMC1]",
    "protein stability index": 3.07
  },
  {
    "sequence-string": "LPKVRYNVEKVKRLMDF [NSL1]",
    "protein stability index": 2.38
  },
  {
    "sequence-string": "SGNTNGAGSAFGFSSSG [YOR098C/NUP1]",
    "protein stability index": 3.13
  },
  {
    "sequence-string": "LVTQHKAKYNTPKYRLV [RPL5]",
    "protein stability index": 1.94
  }
]

# map each sequence to its protein stability index
1. AQFRVPRYHSKNSFQQA [SWP82]
2. QQLRRALPDVVVKGLPD [RPO31]
3. DKKVTLITSEMFDAFVS [SIN4]

1. 2.57
2. 2.31
3. 1.46

# map each sequence to its protein stability index
1. YYAKKRAFTKKVSSASA [RPL16B]
2. VIDLEKIKFDESSKLMT [BRR2]
3. SSFKKNLLKFITSNHKS [RPN3]
4. TLHLVLRLRGGGKKRKK [RPS31]
5. IDLLLLGQERATDLAGP [PRP8]
6. VFLKHSLSIKLATLHYQ [RPN6]
7. KAKTTKKVVLRLECVKC [RPL42A]

1.71
1.43
1.5
2.32
2.58
2.57
1.52

# map each sequence to its protein stability index
1. VQKILPLSNEVFEISEN [SWI1]
2. SGITDPYEMYKYVHVSE [FAS2]
3. WDDHTKKPLSMALNKVL [CDC53]
4. YRCFAQLELRQLNASIS [RRI2]
5. RPFGVALLIAGHDADDG [PUP2]
6. DDRVDKKFVSQIQKNVD [POP3]

[1.85, 2.63, 2.29, 3.24, 2.66, 3.44]
